This collection of values is drawn from patent US12630528B2.

Molecular target: human DGAT2 (Homo sapiens, UniProt Q96PD7)
Construct: FLAG (DYKDDDDK); membrane fraction used
Sequence (Q96PD7 1-388): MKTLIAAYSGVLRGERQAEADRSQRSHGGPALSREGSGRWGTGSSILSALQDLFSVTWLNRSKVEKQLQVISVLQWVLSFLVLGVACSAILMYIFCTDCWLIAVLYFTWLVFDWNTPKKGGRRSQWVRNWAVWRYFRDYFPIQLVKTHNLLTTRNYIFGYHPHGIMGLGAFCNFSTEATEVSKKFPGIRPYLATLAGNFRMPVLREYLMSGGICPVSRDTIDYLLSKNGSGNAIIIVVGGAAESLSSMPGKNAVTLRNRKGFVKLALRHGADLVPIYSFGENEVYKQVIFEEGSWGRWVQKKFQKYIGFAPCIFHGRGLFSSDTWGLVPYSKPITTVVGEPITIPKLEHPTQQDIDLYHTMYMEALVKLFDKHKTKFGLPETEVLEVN
Test: DGAT2 enzyme activity inhibition, Phospholipid FlashPlate SPA
Conditions: recombinant human DGAT2 membrane protein from Sf-21 cells; inhibition of [14C]-TG production; 37° C.
MEASURED PROPERTY: IC50 (nM)

Examples with answers:
IC50 lookup needed for CCOc1ccccc1O[C@@H]1CCCN(c2cncc(Nc3cccc(-c4cccc(OC(C)(C)C(=O)O)c4)n3)n2)C1 , thanks.
310

Continue with CCOc1ccccc1O[C@@H]1CCCN(c2cncc(Nc3cccc(N4CCC(CC(=O)O)CC4)n3)n2)C1
330

Continue with CCOc1cccnc1O[C@@H]1CCCN(c2ccnc(Nc3nccc(C(C)(C)C(=O)O)n3)n2)C1
410

// next record CCOc1ccccc1O[C@@H]1CCCN(c2cncc(Nc3cccc(-c4ccc(NC(C)(C)C(=O)O)cc4)n3)n2)C1
250

Repeat for the following compound: CCOc1ccccc1O[C@@H]1CCCN(c2cncc(Nc3ccccn3)n2)C1
130

[A] CCOc1cccnc1O[C@@H]1CCCN(c2cncc(Nc3ccnc(-c4ccc(OC(C)(C)C(=O)O)cc4)n3)n2)C1
[B] CCOc1ccccc1O[C@@H]1CCCN(c2cncc(Nc3cccc(-c4ccc(NCC(=O)O)cc4)n3)n2)C1
[C] CCOc1ccccc1O[C@@H]1CCCN(c2cncc(Nc3ccccc3)n2)C1
[D] CCOc1ccccc1O[C@@H]1CCCN(c2cncc(Nc3ncc(F)c(-c4cccc(CC(C)(C)C(=O)O)c4)n3)n2)C1
[E] CCOc1cccnc1O[C@@H]1CCCN(c2cncc(Nc3nccc(-c4ccc(CC(C)(C)C(=O)O)cc4)n3)n2)C1
Sort these compounds on IC50 so the largest reading comes first. # format: label list in the order the request specifies
C, B, A, D, E
(C: 5500 nM, B: 890 nM, A: 590 nM, D: 320 nM, E: 180 nM)

[A] CCOc1ccccc1O[C@@H]1CCCN(c2cncc(Nc3cc(-c4ccccc4)ccn3)n2)C1
[B] CCOc1cccnc1O[C@@H]1CCCN(c2cncc(Nc3ccc(F)c(-c4cccc(CC(C)(C)C(=O)O)c4)n3)n2)C1
Response body: label of entry with the larger IC50; valid values A , B . I would appreciate it if you answered with the label of your choice.
A

----------
molecular target: human DGAT2 (Homo sapiens); construct: FLAG (DYKDDDDK); membrane fraction used; experiment: DGAT2 enzyme activity inhibition, Phospholipid FlashPlate SPA; details: recombinant human DGAT2 membrane protein from Sf-21 cells; inhibition of [14C]-TG production; 37° C.
MEASURED PROPERTY: IC50 (nM)

Recorded IC50, per entry:
# query: IC50 of entry CCOc1cccnc1O[C@@H]1CCCN(c2cncc(Nc3nc(-c4cccc(CC(C)(C)C(=O)O)c4)ccc3F)n2)C1
190

Field entry: CCOc1ccccc1O[C@@H]1CCCN(c2cccc(Nc3nccc(-c4cccc(CC(C)(C)C(=O)O)c4)n3)n2)C1
3100

Next molecule up: CCOc1ccccc1O[C@@H]1CCCN(c2cncc(Nc3nccc(N4CCC(C(=O)O)CC4)n3)n2)C1
5500

Repeat for the following molecule: CCOc1ccccc1O[C@@H]1CCCN(c2cncc(Nc3nccc(N4CCCC(C)(C(=O)O)C4)n3)n2)C1 (stereo partly drawn)
6100

Okay, and CCOc1cccnc1O[C@@H]1CCCN(c2cncc(Nc3cccc(Oc4cccc(C(C)(C)C(=O)O)c4)n3)n2)C1 ?
300

[a] CCOc1ccccc1O[C@@H]1CCCN(c2cncc(Nc3cc(CC(C)(C)C(=O)O)ccn3)n2)C1
[b] CCOc1ccccc1O[C@@H]1CCCN(c2cncc(Nc3cccc(-c4cccc(C(C)(C)C(=O)O)c4)n3)n2)C1
[c] CCOc1ccccc1O[C@@H]1CCCN(c2cncc(Nc3ccc(CC(=O)NCc4ccncc4)cc3)n2)C1
[d] CCOc1ccccc1O[C@@H]1CCCN(c2cncc(Nc3nc4ccc(C(C)(C)C(=O)O)cc4o3)n2)C1
[e] CCOc1cccnc1O[C@@H]1CCCN(c2cncc(Nc3cccc(Oc4ccc(CC(=O)O)cc4)n3)n2)C1
Order by IC50, ascending. Your answer should be the labels, listed in the requested order.
b, e, d, a, c

----------
Target: human DGAT2 (Homo sapiens, UniProt Q96PD7)
Construct: FLAG (DYKDDDDK); membrane fraction used
Assay: DGAT2 enzyme activity inhibition, Phospholipid FlashPlate SPA
Conditions: recombinant human DGAT2 membrane protein from Sf-21 cells; inhibition of [14C]-TG production; 37° C.
Source text: In order to prepare the pBacPAK9-DGAT2, which is DGAT2 expression vector, the human DGAT2 gene amplified by polymerase chain reaction (PCR) was cloned into the EcoR1 and Xho1 sites of the pBacPAK9 (clonctech) vector. […] Recombinant human DGAT2 protein was expressed in Sf-21 cells, which are insect cells, by using the BacPack baculovirus expression system (Clontech). […] Protein concentration was quantified by using the BCA Protein Assay Kit (Thermo Scientific). […]
pIC50: −log10 of the molar value.
MEASURED PROPERTY: pIC50

Request the reported pIC50 associated with CCOc1ccccc1O[C@@H]1CCCN(c2cncc(Nc3nccc(-c4cccc(CC(=O)O)c4)n3)n2)C1
6.82

Try the molecule CCOc1ccccc1O[C@@H]1CCCN(c2cncc(Nc3cncc(-c4cccc(CC(C)(C)C(=O)O)c4)n3)n2)C1
6.70

Here is the next molecule: CCOc1cccnc1O[C@@H]1CCCN(c2ccnc(Nc3cccc(-c4cccc(CC(C)(C)C(=O)O)c4)n3)n2)C1
5.48

Similarly, CCOc1ccccc1O[C@@H]1CCCN(c2cncc(Nc3cc(C(F)(F)F)cc(-c4cccc(CC(C)(C)C(=O)O)c4)n3)n2)C1 ?
6.77

What about this molecule? CCOc1ccccc1O[C@@H]1CCCN(c2ccnc(Nc3nccc(-c4ccc(CC(C)(C)C(=O)O)cc4)n3)n2)C1
5.92

Do the same for CCOc1ccccc1O[C@@H]1CCCN(c2cncc(Nc3cc(-c4cccc(CCC(=O)O)c4)ccn3)n2)C1 please
5.74

[P] CCOc1cccnc1O[C@@H]1CCCN(c2cncc(Nc3cccc(Oc4ccc(C(=O)O)cc4)n3)n2)C1
[Q] CCOc1ccccc1O[C@@H]1CCCN(c2cncc(Nc3nc(-c4cc(CC(C)(C)C(=O)O)ccc4F)ccc3F)n2)C1
Lab note: check whether P or Q has the lower measured pIC50. State your choice using its label.
P

----------
Target: human DGAT2 (Homo sapiens)
Construct: FLAG (DYKDDDDK); membrane fraction used
Sequence (Q96PD7 1-388): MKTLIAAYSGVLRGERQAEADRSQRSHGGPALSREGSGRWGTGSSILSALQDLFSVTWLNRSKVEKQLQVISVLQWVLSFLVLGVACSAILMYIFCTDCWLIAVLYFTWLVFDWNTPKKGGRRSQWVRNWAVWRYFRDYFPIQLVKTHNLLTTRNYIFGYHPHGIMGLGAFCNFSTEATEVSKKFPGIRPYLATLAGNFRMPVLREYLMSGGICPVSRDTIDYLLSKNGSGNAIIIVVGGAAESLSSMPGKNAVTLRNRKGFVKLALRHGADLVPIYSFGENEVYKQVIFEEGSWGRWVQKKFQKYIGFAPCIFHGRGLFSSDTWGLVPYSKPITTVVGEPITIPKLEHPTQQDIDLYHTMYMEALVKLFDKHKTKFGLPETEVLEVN
Assay: DGAT2 enzyme activity inhibition, Phospholipid FlashPlate SPA
Conditions: recombinant human DGAT2 membrane protein from Sf-21 cells; inhibition of [14C]-TG production; 37° C.
MEASURED PROPERTY: IC50 (µM)

Recorded IC50, per entry:
Value lookup for IC50; key = CCOc1ccccc1O[C@@H]1CCCN(c2cncc(Nc3nccc(N4CCCC(C(=O)O)C4)n3)n2)C1 (stereo partly shown)
0.89

Do the same for CCOc1ccccc1O[C@@H]1CCCN(c2cncc(Nc3nc4ccc(S(C)(=O)=O)cc4s3)n2)C1 please
8.8

[P] CCOc1ccccc1O[C@@H]1CCCN(c2cncc(Nc3nc4cc(/C=C/C(=O)O)ccc4o3)n2)C1
[Q] CCOc1ccccc1O[C@@H]1CCCN(c2nccc(Nc3cccc(-c4ccc(NCC(=O)O)cc4)n3)n2)C1
[R] CCOc1ccccc1O[C@@H]1CCCN(c2cncc(Nc3cc(C(C)(C)C(=O)O)ccn3)n2)C1
[S] CCOc1ccccc1O[C@@H]1CCCN(c2cncc(Nc3cccc(N4CCC[C@H](OCC(=O)O)C4)n3)n2)C1
Arrange the 4 compounds from largest to smallest IC50. Your task in answering is to list the labels in the requested order.
P, S, Q, R
